The origin of these recorded values is patent US6887879B2.

A collection of molecules and their measured pEC50
- System: HIV-1 clinical isolate 4833
- protocol_summary: microbe, parasite or virus in culture
- Type: cell-based
- reported_conditions: Human immunodeficiency virus 1, therapy Saquinavir (48 weeks), read-out: EC50 in CBMCs
Bear in mind: pEC50 is minus log10 of a mol/L concentration; give just that figure.

# annotated cases, reported pEC50 shown
Nc1nc(N)c2ncn([C@H]3CO[C@@H](CO)O3)c2n1 [DAPD, (−)- -D-2,6-diaminopurine-1,3-dioxolane]	6.20
CC(C)(C)NC(=O)[C@@H]1C[C@@H]2CCCC[C@@H]2CN1C[C@@H](O)[C@H](Cc1ccccc1)NC(=O)[C@H](CC(N)=O)NC(=O)c1ccc2ccccc2n1 [saquinavir, reference compound]	6.96

The value of pEC50 measured for the molecule Nc1nc2c(ncn2[C@H]2CO[C@@H](CO)O2)c(=O)[nH]1 [DXG, (−)-β-D-1,3-dioxolane guanine] turned out to be 6.77

* * *

Measured pEC50, listed per entry.
- Tested on: HIV-1 clinical isolate 4246
- protocol_summary: Antiviral assay, HIV-1 clinical isolate 4246, CBMCs
- Assay type: cell-based
- reported_conditions: Human immunodeficiency virus 1, read-out: EC50 in CBMCs
Conceptually, pEC50 converts a concentration in mol/L into minus its log10.

Nc1nc2c(ncn2[C@H]2CO[C@@H](CO)O2)c(=O)[nH]1 [DXG, (−)-β-D-1,3-dioxolane guanine]	6.92

// returns pEC50 for Nc1nc(N)c2ncn([C@H]3CO[C@@H](CO)O3)c2n1 [DAPD, (−)- -D-2,6-diaminopurine-1,3-dioxolane] with HIV-1 clinical isolate 4246; value = 6.39

* * *

- Tested on: HIV-1 clinical isolate 4924
- protocol_summary: microbe, parasite or virus in culture
- Format: cell-based
- reported_conditions: Human immunodeficiency virus 1
parameter: EC50

EC50 reported for this molecule Cc1ccnc2c1NC(=O)c1cccnc1N2C1CC1 [nevirapine, reference compound] : > 10 µM

* * *

Recorded measurements of CC50 at 72 h, one per entry
- protocol_summary: Cytotoxicity, [3H]-thymidine uptake, DU145
- Type: cell-based
- reported_conditions: human, DU145 cells
- Method: The cellular toxicity of the BCH compounds were assessed on various cells using [^3H]-thymidine uptake. The various cells, including Molt-4, HT1080, DU-145, HepG 2 and HSF, were plated at a concentration of 1-2×10^3 cells per well (96 well plates). However, PHA-stimulated PBMCs were cultured at a concentration of 4×10^4. […] Using this instrument the extracted DNA is adsorbed onto filters, washed and the incorporated [^3H]-thymidine is then counted.

Below, 4 molecules whose answers are already recorded.
Cc1cn([C@H]2C[C@H](N=[N+]=[N-])[C@@H](CO)O2)c(=O)[nH]c1=O [AZT, zidovudine, reference compound]	> 10 µM
Nc1ccn([C@@H]2CS[C@H](CO)O2)c(=O)n1 [lamivudine, reference compound]	> 500 µM
Nc1nc(N)c2ncn([C@H]3CO[C@@H](CO)O3)c2n1 [DAPD, (−)- -D-2,6-diaminopurine-1,3-dioxolane]	> 500 µM
Nc1nc2c(ncn2[C@H]2CO[C@@H](CO)O2)c(=O)[nH]1 [DXG, (−)-β-D-1,3-dioxolane guanine]	> 500 µM

// below: CC50 at 72 h requested for another molecule
# CC50 at 72 h of Nc1ccn([C@H]2CC[C@@H](CO)O2)c(=O)n1 [ddC, 2′,3′-dideoxycytidine] = 5 µM
